Assign relative integration efficiency (log2) to each entry below.
Tested on: VchCAST RNA-guided transposition machinery (E. coli BL21(DE3) host, lacZ target)
TEST METHOD NOTES: relative integration efficiency (T-LR orientation) vs wild-type transposon end (log2 (normalized fold change)); transposon end mutated: right end (5 bp flank + 75 bp right end); higher = more efficient transposition
Answers are plain numbers.

Please review the entries below; each comes with its answer.
Query string: Give the measured relative integration efficiency (log2) of `ACATTTGTTGATACAACCATAAAATGATAATTAATACACCCATAAATTGATAATTATCAACAAACGCCCGGTCGCGGTACTCTGATCATAGTCAGACCAACATTGCTACGACCCGTATTCGCACCGA` .
Result string: 0.594

Query string: // query relative integration efficiency (log2) value for entry `ACATTTGTTGATACAACCAAAAAATGATAATTACACCCATAAATTGATAATAATGACACCGAATTTAACTATAACGCTCTGATCATAGTCAGACCAACATTGCTACGACCCGTATTCGCACCGACAC`
Result string: 2.17

New cases:
Query string: // lookup relative integration efficiency (log2) for `ACATTTGTGGATACAACCATAAAACGATAATTACACCCATAAATTCATAATTATCACACCCAATTTAACTATAACGCTCTGATCATAGTCAGACCAACATTGCTACGACCCGTATTCGCACCGACAC`
Result string: 0.933

---

Tested on: VchCAST RNA-guided transposition machinery (E. coli BL21(DE3) host, lacZ target)
TEST METHOD NOTES: relative integration efficiency (T-RL orientation) vs wild-type transposon end (log2 (normalized fold change)); transposon end mutated: right end (5 bp flank + 75 bp right end); higher = more efficient transposition
Please respond with reported relative integration efficiency (log2) for every item in the list.
Answers are plain numbers.

A selection of reference data follows.
Query string: # get_value(readout= relative integration efficiency (log2), system= VchCAST RNA-guided transposition machinery (E. coli BL21(DE3) host, lacZ target)) for `ACATTTGTTGATACCACCATAAAATGGTAATTCCACCCATACATTGATAATTATCACACCCAATTTAACTATAACGCTCTGATCATAGTCAGACCAACATTGCTACGACCCGTATTCGCACCGACAC`
Result string: -3.16

Query string: Provide value of relative integration efficiency (log2) for this record tested with VchCAST RNA-guided transposition machinery (E. coli BL21(DE3) host, lacZ target): `ACATTTGTCGATACAACCCTAAAATGATAATTACACCCATAAATTGATCATTATCACCCCCAATTTAACTATAACGCTCTGATCATAGTCAGACCAACATTGCTACGACCCGTATTCGCACCGACAC`
Result string: -2.5

Query string: # value lookup — system VchCAST RNA-guided transposition machinery (E. coli BL21(DE3) host, lacZ target), readout relative integration efficiency (log2), item `ACATTTGTTGATACAACCATAAAATGATAATTAATAATTATTTATAACACCCATAAATTGATAATTATCAACAAACGCCCGGTCGCGGTACTCTGATCATAGTCAGACCAACATTGCTACGACCCGT`
Result string: -2.63

Query string: What is its relative integration efficiency (log2) for VchCAST RNA-guided transposition machinery (E. coli BL21(DE3) host, lacZ target)? Entry: `ACATTTGATGATACTACCATTTAATGATAATAACACCCATAAAATGATAATTATCACACCCAATTTAACTATAACGCTCTGATCATAGTCAGACCAACATTGCTACGACCCGTATTCGCACCGACAC`
Result string: -2.14

# context switch: different sequence, same relative integration efficiency (log2)
Query string: What is its relative integration efficiency (log2) for VchCAST RNA-guided transposition machinery (E. coli BL21(DE3) host, lacZ target)? Entry: `ACATTTGTTGATACAACCATAAGTTGATATTTTCACCCATAAATTGATATTGCTCACACCCATAAATTGATAATTACTCTGATCATAGTCAGACCAACATTGCTACGACCCGTATTCGCACCGACAC`
Result string: -0.658

---

System: VchCAST RNA-guided transposition machinery (E. coli BL21(DE3) host, lacZ target)
TEST METHOD NOTES: relative integration efficiency (T-RL orientation) vs wild-type transposon end (log2 (normalized fold change)); transposon end mutated: right end (5 bp flank + 75 bp right end); higher = more efficient transposition
MEASURED ATTRIBUTE: relative integration efficiency (log2)
Give bare numbers.

Here are 3 sequences. What values of relative integration efficiency (log2) were reported for them?
1. ACATTTGTTGATACACAACGCCCCGTCGCCGGCACAAACGCCCGGTCGCCGGCGACACAAACGCCCGGTCGCGGTAAGAGGATCATAGTCAGACCAACATTGCTACGACCCGTATTCGCACCGACAC
2. ACATTTGTTGATACAACCATAAAATGATAATTAATAATTATTTATAATCAGCACCCATAAATTGATAATTATCACACCCATAAATTGATATTGCCTCTGATCATAGTCAGACCAACATTGCTACGAC
3. ACATTTGTTGATACAACCATAAAATGATAATTACAACCATAAAATGATAATTATCACAACCATAAGTTGATATTTTCTCTGATCATAGTCAGACCAACATTGCTACGACCCGTATTCGCACCGACAC

Result string:
[-7.89, -3.29, -0.0104]

---

Test system: VchCAST RNA-guided transposition machinery (E. coli BL21(DE3) host, lacZ target)
TEST METHOD NOTES: relative integration efficiency (T-RL orientation) vs wild-type transposon end (log2 (normalized fold change)); transposon end mutated: right end (5 bp flank + 75 bp right end); higher = more efficient transposition
Mark y for reported relative integration efficiency (log2) of -0.3 or greater; mark n for anything smaller.

Please review the entries below; each comes with its answer.
Query string: Assess whether reported relative integration efficiency (log2) for `ACATTTGTTGATACAACCCTAAAATGATAATTACACCCATAAATTGATAATTATCACCCCCAATTTAACTATAACGCTCTGATCATAGTCAGACCAACATTGCTACGACCCGTATTCGCACCGACAC` sits at -0.3 or higher.
Result string: n

Query string: Assess whether reported relative integration efficiency (log2) for `ACATTTGTTGATACAACCATAAAAGGATAATTACACCCATCAATTGATAATTATCACACCCCATTTAACTATAACGCTCTGATCATAGTCAGACCAACATTGCTACGACCCGTATTCGCACCGACAC` sits at -0.3 or higher.
Result string: n

Query string: # check: relative integration efficiency (log2) of `CAATTTGTTGATACAACCATAAAATGATAATTACACCCATAAATTGATAATTATCACACCCATAAATTGATATTGCCTCTGATCATAGTCAGACCAACATTGCTACGACCCGTATTCGCACCGACAC` is greater than or equal to -0.3
Result string: y

---
Query string: In plain terms: is recorded relative integration efficiency (log2) at least -0.3 for `ACATTTGTTGATACAACCATAAAATGATAATTACAACCATAAAGTGATATTTATCACAACCATAAAGTGATATTTACTCTGATCATAGTCAGACCAACATTGCTACGACCCGTATTCGCACCGACAC` ?
Result string: y

---

System: VchCAST RNA-guided transposition machinery (E. coli BL21(DE3) host, lacZ target)
TEST METHOD NOTES: relative integration efficiency (T-LR orientation) vs wild-type transposon end (log2 (normalized fold change)); transposon end mutated: left end; higher = more efficient transposition
MEASURED ATTRIBUTE: relative integration efficiency (log2)
Give bare numbers.

Study these solved cases before continuing.
Query string: What value of relative integration efficiency (log2) has been reported for the following sequence? `AATGTTGTTGATGCAACCATAAAGTGATATTTAATAATTATTTATAATCAGCAACTTACAACCATATATTGATATCTCACAAAACAACCATAAGTTGATATTTTTGTGAATCGAGTATTTCAGCAAAACTACTGCAGTAAGAAAGTTACTTC`
Result string: -0.998

Query string: Sample `AATGTTGTTGATGCAACCATAAAGTGATATTTAATAATTATTTATAATCAGCAACTTAACCACAAAACAACCATATATTGATATCTCACAAAACAACACGCCTGGTCGCGGGGGTGTCCGATCTGATTTCAGCAAAACTACTGCAGTAAGAA` — what was its relative integration efficiency (log2)?
Result string: -0.741

Batch of 2 sequences: report relative integration efficiency (log2) for each.
1. TTTTGTGTTGAAACAACCATAAAGTGATAACAACGAATCAATTAAAATCATAGGCTTAATCGAAAAACAACCATATCTTGATATCGCATAAAACAACCATAAGTTGATATTTTGGTGAAACGAGTATTTCAGCAAAACTACTGCAGTAAGAA
2. AATGTTGTTGATGCAACCATAAAGTGATATTTAATAATTATTTATAATCAGCAACTTAACCACAAAACAACCATATATTGATATCTCACCCCCACCAACGCCTGGTCGCGGGGGTGTCCGATCTGATTTCAGCAAAACTACTGCAGTAAGAA

Result string:
1: -1.04; 2: -1.5

The values you see were collected from the supplement of paper PMC10201428.
